# target-desc: EGFR L858R/T790M mutant (Homo sapiens (Human), UniProt P00533, L858R/T790M)
# Sequence (P00533 25-1210 T790M/L858R): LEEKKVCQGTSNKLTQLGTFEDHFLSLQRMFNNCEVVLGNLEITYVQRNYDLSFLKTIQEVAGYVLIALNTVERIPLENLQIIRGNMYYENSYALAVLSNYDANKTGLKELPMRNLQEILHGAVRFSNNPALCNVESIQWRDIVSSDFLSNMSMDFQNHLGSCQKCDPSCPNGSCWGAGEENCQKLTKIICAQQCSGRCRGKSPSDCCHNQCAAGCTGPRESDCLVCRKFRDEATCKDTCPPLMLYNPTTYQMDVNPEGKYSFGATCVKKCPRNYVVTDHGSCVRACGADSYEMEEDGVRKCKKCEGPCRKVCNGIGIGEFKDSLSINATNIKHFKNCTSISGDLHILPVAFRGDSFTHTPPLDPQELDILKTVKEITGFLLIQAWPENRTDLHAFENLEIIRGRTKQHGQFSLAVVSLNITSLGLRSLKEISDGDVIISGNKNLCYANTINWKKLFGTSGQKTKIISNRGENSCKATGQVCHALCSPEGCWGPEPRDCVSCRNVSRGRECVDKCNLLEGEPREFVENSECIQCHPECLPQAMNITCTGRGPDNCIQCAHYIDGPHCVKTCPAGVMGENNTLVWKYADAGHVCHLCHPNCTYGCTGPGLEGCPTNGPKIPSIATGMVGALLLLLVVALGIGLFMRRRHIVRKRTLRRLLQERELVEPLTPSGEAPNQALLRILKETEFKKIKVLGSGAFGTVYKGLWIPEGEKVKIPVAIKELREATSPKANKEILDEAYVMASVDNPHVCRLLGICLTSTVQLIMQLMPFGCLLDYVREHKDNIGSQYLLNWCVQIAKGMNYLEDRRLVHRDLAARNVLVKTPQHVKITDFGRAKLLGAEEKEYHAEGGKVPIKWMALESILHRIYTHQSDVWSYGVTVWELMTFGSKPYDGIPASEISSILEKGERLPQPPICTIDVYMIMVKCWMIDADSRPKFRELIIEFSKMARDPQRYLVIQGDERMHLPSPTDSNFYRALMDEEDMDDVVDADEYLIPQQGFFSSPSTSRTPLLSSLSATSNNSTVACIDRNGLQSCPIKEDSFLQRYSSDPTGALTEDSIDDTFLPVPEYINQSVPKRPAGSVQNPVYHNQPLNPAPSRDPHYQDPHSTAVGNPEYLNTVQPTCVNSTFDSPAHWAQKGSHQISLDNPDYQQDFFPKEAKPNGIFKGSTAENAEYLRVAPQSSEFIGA
# assay-remarks: HotSpot radiometric kinase assay, EGFR L858R/T790M mutant
# test-context: 10 μM ATP
pIC50: −log10 of the molar value.
Listed next: entries and their corresponding pIC50.
measured-attribute: pIC50

> print(dat)
                                    compound                               target.desc  recorded.measurement
 1  Cc1nn(CCN2CCCC2)c2c1/C=C/c1n[nH]c3ccc(cc13)-c1cnn(C)c1C(C)OCCO2 (centres unmarked)  EGFR L858R/T790M mutant (Homo sapiens (Human), UniProt P00533, L858R/T790M)                  7.98
 2  CCOc1nn(C)c2c1/C=C/c1n[nH]c3ccc(cc13)-c1cnn(C)c1O[C@@H]1CCCN(C2)C1  EGFR L858R/T790M mutant (Homo sapiens (Human), UniProt P00533, L858R/T790M)                  8.85
 3  Cc1c2c(nn1CCC(C)O)CN(C)C[C@H](C)Oc1c(cnn1C)-c1ccc3[nH]nc(c3c1)/C=C/2 (some centres unmarked)  EGFR L858R/T790M mutant (Homo sapiens (Human), UniProt P00533, L858R/T790M)                  8.71
 4  CC(C)Oc1nn(CCO)c2c1/C=C/c1n[nH]c3ccc(cc13)-c1cnn(C)c1O[C@@H](C#N)CN(C)C2  EGFR L858R/T790M mutant (Homo sapiens (Human), UniProt P00533, L858R/T790M)                  7.74
 5  Cc1c2c(nn1[C@H]1C[C@@H](N(C)CCN(C)C)C1)OCCCOc1c(cnn1C)-c1ccc3[nH]nc(c3c1)/C=C/2  EGFR L858R/T790M mutant (Homo sapiens (Human), UniProt P00533, L858R/T790M)                  8.39
 6  Cc1nn(C)c2c1/C=C/c1n[nH]c3ccc(cc13)-c1cnn(C)c1OCCN1CC[C@@H](O2)C1=O  EGFR L858R/T790M mutant (Homo sapiens (Human), UniProt P00533, L858R/T790M)                  7.80
 7  C[C@H]1CN(C)Cc2c(c(CN(C)C)nn2CCO)/C=C/c2n[nH]c3ccc(cc23)-c2cnn(C)c2O1  EGFR L858R/T790M mutant (Homo sapiens (Human), UniProt P00533, L858R/T790M)                  6.55
 8  Cc1nn(C)c2c1/C=C/c1n[nH]c3ccc(cc13)-c1cnn(C)c1OCCN(C)C(=O)CO2  EGFR L858R/T790M mutant (Homo sapiens (Human), UniProt P00533, L858R/T790M)                  7.36
 9  CSCn1ncc2c1O[C@@H](C)CN(C(C)C)Cc1c(c(C)nn1C)/C=C/c1n[nH]c3ccc-2cc13  EGFR L858R/T790M mutant (Homo sapiens (Human), UniProt P00533, L858R/T790M)                  8.49
10  CCOc1nn(CCO)c2c1/C=C/c1n[nH]c3ccc(cc13)-c1cnn(C)c1O[C@H]1CN(C)C[C@@H]1N(C)C2 (single isomer, unassigned)  EGFR L858R/T790M mutant (Homo sapiens (Human), UniProt P00533, L858R/T790M)                  8.34
11  CCc1nn(C)c2c1/C=C/c1n[nH]c3ccc(cc13)-c1cnn(C)c1CN(C)CCO2  EGFR L858R/T790M mutant (Homo sapiens (Human), UniProt P00533, L858R/T790M)                  8.30
12  Cc1c2c(nn1CCN1CCN(C)CC1)CN(C)C[C@H](C)Oc1c(cnn1C)-c1ccc3[nH]nc(c3c1)/C=C/2  EGFR L858R/T790M mutant (Homo sapiens (Human), UniProt P00533, L858R/T790M)                 10.22
13  Cc1nn([C@H]2C[C@@H](NCCN(C)C)C2)c2c1/C=C/c1n[nH]c3ccc(cc13)-c1cnn(C)c1OCCCO2  EGFR L858R/T790M mutant (Homo sapiens (Human), UniProt P00533, L858R/T790M)                  8.41
14  Cc1c2c(nn1CCO)CN(C)C[C@H](C)Oc1c(cnn1C)-c1ccc3[nH]nc(c3c1)/C=C/2  EGFR L858R/T790M mutant (Homo sapiens (Human), UniProt P00533, L858R/T790M)                  8.16
